Assign IC50 to each entry below.
Target: Adenylate cyclase type 1 (Homo sapiens, UniProt Q08828)
Sequence (Q08828 whole entry): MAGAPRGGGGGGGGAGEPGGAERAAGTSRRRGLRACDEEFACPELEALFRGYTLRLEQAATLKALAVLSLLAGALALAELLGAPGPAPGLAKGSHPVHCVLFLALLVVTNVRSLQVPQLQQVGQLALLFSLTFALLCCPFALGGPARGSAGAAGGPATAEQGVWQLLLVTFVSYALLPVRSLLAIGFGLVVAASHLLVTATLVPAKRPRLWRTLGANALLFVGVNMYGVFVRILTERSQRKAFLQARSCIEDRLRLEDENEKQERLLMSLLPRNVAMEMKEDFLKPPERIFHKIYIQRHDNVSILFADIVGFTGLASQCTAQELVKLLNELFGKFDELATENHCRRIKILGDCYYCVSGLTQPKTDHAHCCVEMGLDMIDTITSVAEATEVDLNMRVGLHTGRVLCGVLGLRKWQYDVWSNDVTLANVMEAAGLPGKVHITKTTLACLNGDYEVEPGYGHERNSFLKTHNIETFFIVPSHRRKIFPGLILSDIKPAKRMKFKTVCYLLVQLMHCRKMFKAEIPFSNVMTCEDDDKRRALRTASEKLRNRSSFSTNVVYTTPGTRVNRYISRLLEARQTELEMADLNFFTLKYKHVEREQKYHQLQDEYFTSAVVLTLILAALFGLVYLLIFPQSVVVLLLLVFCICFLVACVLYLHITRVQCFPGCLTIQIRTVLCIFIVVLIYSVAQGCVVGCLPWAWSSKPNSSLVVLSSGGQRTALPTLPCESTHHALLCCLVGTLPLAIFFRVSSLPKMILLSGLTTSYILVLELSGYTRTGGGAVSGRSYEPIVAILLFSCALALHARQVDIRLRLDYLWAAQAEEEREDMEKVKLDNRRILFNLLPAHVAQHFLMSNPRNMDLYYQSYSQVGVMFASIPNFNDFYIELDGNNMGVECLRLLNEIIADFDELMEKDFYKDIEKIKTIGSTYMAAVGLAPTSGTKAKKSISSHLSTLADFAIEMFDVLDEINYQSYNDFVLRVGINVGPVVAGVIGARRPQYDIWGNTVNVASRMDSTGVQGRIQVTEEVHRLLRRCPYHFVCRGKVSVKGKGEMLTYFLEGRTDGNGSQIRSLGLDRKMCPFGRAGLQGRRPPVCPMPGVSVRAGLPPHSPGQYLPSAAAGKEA
Assay: Inhibition of [125 I]6-IHPP-forskolin binding to adenylate cyclase 1

For record C=C[C@@]1(C)CC(=O)[C@]2(O)[C@@]3(C)[C@@H](O)CCC(C)(C)[C@@H]3[C@H](OC(=O)NCCO)[C@H](OC(C)=O)[C@@]2(C)O1 the listed IC50 is < 150 nM

IC50 in this record for C=C[C@@]1(C)CC(=O)[C@]2(O)[C@@]3(C)[C@@H](O)CCC(C)(C)[C@@H]3[C@H](O)[C@H](OC(=O)NCCC)[C@@]2(C)O1 : < 150 nM

Form field IC50, entry C=C[C@@]1(C)CC(=O)[C@]2(O)[C@@]3(C)[C@@H](O)CCC(C)(C)[C@@H]3[C@H](OC(=O)NCC(C)C)[C@H](OC(C)=O)[C@@]2(C)O1 : > 150 nM

Per the records, this compound ( C=C[C@@]1(C)CC(=O)[C@]2(O)[C@@]3(C)[C@@H](O)CCC(C)(C)[C@@H]3[C@H](O)[C@H](OC(=O)NCCN3CCCCC3)[C@@]2(C)O1 ) has IC50 equal to > 150 nM

IC50 reading for C=C[C@@]1(C)CC(=O)[C@]2(O)[C@@]3(C)[C@@H](O)CCC(C)(C)[C@@H]3[C@H](OC(=O)NCCOC)[C@H](O)[C@@]2(C)O1 : > 150 nM

Kindly note the recorded IC50 for C=C[C@@]1(C)CC(=O)[C@]2(O)[C@@]3(C)[C@@H](O)CCC(C)(C)[C@@H]3[C@H](OC(=O)NCCc3ccccc3)[C@H](OC(C)=O)[C@@]2(C)O1 , which is < 150 nM

====

Target: Adenylate cyclase type 1 (Homo sapiens, UniProt Q08828)
Assay: Ability to activate the conversion of [32P] ATP to [32P]-cyclic AMP mediated by adenylate cyclase 1
Type: functional
Hi there, I'd appreciate the recorded EC50 for every entry that follows.

Bench note, Adenylate cyclase type 1 (Homo sapiens, UniProt Q08828): C=C[C@@]1(C)CC(=O)[C@]2(O)[C@@]3(C)[C@@H](O)CCC(C)(C)[C@@H]3[C@H](OC(=O)NCCOC)[C@H](OC(C)=O)[C@@]2(C)O1 , EC50 reads < 2000 nM

Record C=C[C@@]1(C)CC(=O)[C@]2(O)[C@@]3(C)[C@@H](O)CCC(C)(C)[C@@H]3[C@H](OC(=O)NCCC(C)(C)C)[C@H](O)[C@@]2(C)O1 / Adenylate cyclase type 1 (Homo sapiens, UniProt Q08828), EC50 recorded as > 2000 nM

I looked up C=C[C@@]1(C)CC(=O)[C@]2(O)[C@@]3(C)[C@@H](O)CCC(C)(C)[C@@H]3[C@H](O)[C@H](OC(=O)NCC(C)C)[C@@]2(C)O1 and its EC50 for Adenylate cyclase type 1 (Homo sapiens, UniProt Q08828) was > 2000 nM

Simply: C=C[C@@]1(C)CC(=O)[C@]2(O)[C@@]3(C)[C@@H](O)CCC(C)(C)[C@@H]3[C@H](O)[C@H](OC(=O)NCCN)[C@@]2(C)O1 , Adenylate cyclase type 1 (Homo sapiens, UniProt Q08828), EC50 = < 2000 nM

Param item: C=C[C@@]1(C)CC(=O)[C@]2(O)[C@@]3(C)[C@@H](O)CCC(C)(C)[C@@H]3[C@H](O)[C@H](OC(=O)NCCc3ccccc3)[C@@]2(C)O1 ; param system: Adenylate cyclase type 1 (Homo sapiens, UniProt Q08828); output EC50: > 2000 nM

Entry C=C[C@@]1(C)CC(=O)[C@]2(O)[C@@]3(C)[C@@H](O)CCC(C)(C)[C@@H]3[C@H](OC(=O)NCCC(C)(C)C)[C@H](OC(C)=O)[C@@]2(C)O1 , tested on Adenylate cyclase type 1 (Homo sapiens, UniProt Q08828), has a reported EC50 of > 2000 nM
